Molecular target: T1, 4H2903-AA
T1 chain: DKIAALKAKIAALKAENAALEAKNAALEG
Experiment: two-hybrid library CCmax;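 note: natural log of median RNA to DNA barcode read ratio; higher means stronger binding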
Details: mean of both orientations
reported metric: interaction score

In the examples that follow, each entry is paired with its recorded interaction score.
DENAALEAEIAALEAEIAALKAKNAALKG [4H1040-AA]	1.05
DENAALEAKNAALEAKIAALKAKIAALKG [4H1454-AA]	-1.74
DENAALKAKIAALKAKNAALKAEIAALEG [4H1913-AA]	-1.62

P: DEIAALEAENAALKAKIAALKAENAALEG [4H235-AA]
Q: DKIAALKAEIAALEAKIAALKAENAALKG [4H2604-AA]
R: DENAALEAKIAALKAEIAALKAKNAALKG [4H1360-AA]
**Q:** Returns the items ordered by interaction score, from maximum to minimum. Reply format: the labels, ordered as requested.
**A:** R, Q, P
